Tested on: MPNST complex spheroid with HUVEC/MSC, growth, % test/control
methodDescription: Anticancer human tumor MPNST cell line growth inhibition [Asc];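 note: compounds left on spheroids for seven days before reading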
conditionDescription: second compound 0.1 µM; first compound 0.1 µM; stronger effect = lower value
experimentalReadout: viability, T/C (%)
Dear colleague, please return just the value in %, with no unit written.

Here's what some known entries look like.
1) NC1CCC(NC2CC2c2ccccc2)CC1 (centres undefined) + CNC(C)C(=O)NC1CN(S(=O)(=O)c2cccc(S(=O)(=O)N3CCC4CCC(C(=O)NC(c5ccccc5)c5ccccc5)N4C(=O)C(NC(=O)C(C)NC)C3)c2)CCC2CCC(C(=O)NC(c3ccccc3)c3ccccc3)N2C1=O	54.3
2) Cn1ncnc1[C@H]1c2n[nH]c(=O)c3cc(F)cc(c23)N[C@@H]1c1ccc(F)cc1 + CNC(C)C(=O)NC1CN(S(=O)(=O)c2cccc(S(=O)(=O)N3CCC4CCC(C(=O)NC(c5ccccc5)c5ccccc5)N4C(=O)C(NC(=O)C(C)NC)C3)c2)CCC2CCC(C(=O)NC(c3ccccc3)c3ccccc3)N2C1=O	46.4
3) C=CC(=O)N1CCN(c2nc(=O)n(-c3c(C)ccnc3C(C)C)c3nc(-c4c(O)cccc4F)c(F)cc23)C(C)C1 (centres undefined) + CNC(C)C(=O)NC1CN(S(=O)(=O)c2cccc(S(=O)(=O)N3CCC4CCC(C(=O)NC(c5ccccc5)c5ccccc5)N4C(=O)C(NC(=O)C(C)NC)C3)c2)CCC2CCC(C(=O)NC(c3ccccc3)c3ccccc3)N2C1=O	92.7
4) C=C(F)C(=O)N1CCN(c2nc(OCC3CCCN3C)nc3c2CCN(c2cccc4cccc(Cl)c24)C3)CC1CC#N (centres undefined) + Cc1c(S(C)(=O)=O)c(-c2cc(F)cc(N3CCN(c4ccc(NS(=O)(=O)c5ccc(NC(CCN6CCC(C(=O)OCCCP(=O)(O)O)CC6)CSc6ccccc6)c(S(=O)(=O)C(F)(F)F)c5)cc4)CC3)c2)c(-c2ccc(Cl)cc2)n1C(C)C	66.2
5) Cn1ncnc1[C@H]1c2n[nH]c(=O)c3cc(F)cc(c23)N[C@@H]1c1ccc(F)cc1 + Cc1c(S(C)(=O)=O)c(-c2cc(F)cc(N3CCN(c4ccc(NS(=O)(=O)c5ccc(NC(CCN6CCC(C(=O)OCCCP(=O)(O)O)CC6)CSc6ccccc6)c(S(=O)(=O)C(F)(F)F)c5)cc4)CC3)c2)c(-c2ccc(Cl)cc2)n1C(C)C	50.6

Notebook entry, MPNST complex spheroid with HUVEC/MSC, growth, % test/control assay: viability, T/C of C=C(F)C(=O)N1CCN(c2nc(OCC3CCCN3C)nc3c2CCN(c2cccc4cccc(Cl)c24)C3)CC1CC#N (centres undefined) + CNC(C)C(=O)NC1CN(S(=O)(=O)c2cccc(S(=O)(=O)N3CCC4CCC(C(=O)NC(c5ccccc5)c5ccccc5)N4C(=O)C(NC(=O)C(C)NC)C3)c2)CCC2CCC(C(=O)NC(c3ccccc3)c3ccccc3)N2C1=O = ? 58.5

Notebook entry, MPNST complex spheroid with HUVEC/MSC, growth, % test/control assay: viability, T/C of O=C(c1ccc(F)c(F)c1Nc1ccc(I)cc1F)N1CC(O)([C@@H]2CCCCN2)C1 + Cc1c(S(C)(=O)=O)c(-c2cc(F)cc(N3CCN(c4ccc(NS(=O)(=O)c5ccc(NC(CCN6CCC(C(=O)OCCCP(=O)(O)O)CC6)CSc6ccccc6)c(S(=O)(=O)C(F)(F)F)c5)cc4)CC3)c2)c(-c2ccc(Cl)cc2)n1C(C)C = ? 95.3
